Hey, just so you know, these numbers are from patent US9422240B2.

- EXPERIMENTAL_TARGET: human PHD2 (Homo sapiens (Human), UniProt Q9GZT9)
- Sequence (Q9GZT9 whole entry): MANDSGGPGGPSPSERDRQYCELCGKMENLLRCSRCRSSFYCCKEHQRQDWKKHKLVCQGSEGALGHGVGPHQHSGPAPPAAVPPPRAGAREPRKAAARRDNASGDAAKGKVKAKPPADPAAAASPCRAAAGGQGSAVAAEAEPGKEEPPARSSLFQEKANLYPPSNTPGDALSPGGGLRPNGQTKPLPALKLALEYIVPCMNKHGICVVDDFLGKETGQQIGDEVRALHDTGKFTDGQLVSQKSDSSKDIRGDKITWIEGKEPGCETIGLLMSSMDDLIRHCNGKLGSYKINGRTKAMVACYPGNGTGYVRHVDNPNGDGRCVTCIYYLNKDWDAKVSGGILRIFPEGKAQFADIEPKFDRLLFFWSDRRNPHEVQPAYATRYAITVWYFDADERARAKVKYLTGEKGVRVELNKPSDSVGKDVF
- PROTOCOL: Test 2: human PHD2 inhibitory activity, fluorescence polarization assay of HIF-1α peptide proline hydroxylation
- Type: biochemical
- TEST_PARAMETERS: test compound's concentration 1 μM; Test 2, fluorescence polarization assay; read-out: Percent inhibition (% at 1 μM)
OBSERVED_PROPERTY: inhibition at 1 µM (%)
Answers are plain numbers, in %.

Examples from the recorded data:
Given the entry O=C(O)CNC(=O)C1=C(O)CCN(Cc2ccc(Oc3ccccc3)nc2)C1=O , report its measured inhibition at 1 µM.
89

Given the entry O=C(O)CNC(=O)C1=C(O)C2(CCCCC2)CN(Cc2ccc(-c3ccccn3)cc2)C1=O , report its measured inhibition at 1 µM.
86

Given the entry COc1cccc(-c2ccc(CN3CCC(O)=C(C(=O)NCC(=O)O)C3=O)cc2)n1 , report its measured inhibition at 1 µM.
99

Given the entry Cc1ccc(Oc2ccc(CN3CCC(O)=C(C(=O)NCC(=O)O)C3=O)cn2)cc1Cl , report its measured inhibition at 1 µM.
103

Given the entry O=C(O)CNC(=O)C1=C(O)CCN(Cc2ccc(C3CCCCC3)c(F)c2)C1=O , report its measured inhibition at 1 µM.
94

Given the entry Cc1ccc(Oc2ccc(CN3C(=O)C(C(=O)NCC(=O)O)=C(O)CC34CCC4)cn2)cc1 , report its measured inhibition at 1 µM.
98

Give me inhibition at 1 µM for each of these compounds, listed below.
1. COc1ccc(CN2CCC(O)=C(C(=O)NCCC(=O)O)C2=O)cc1
2. O=C(O)CNC(=O)C1=C(O)CCN(CC2(c3ccccc3)CC2)C1=O
3. O=C(O)CNC(=O)C1=C(O)CCN(Cc2ccc(OCn3nnc4ccccc43)cc2)C1=O
4. Cc1cc(CN2CCC(O)=C(C(=O)NCC(=O)O)C2=O)ccc1OCc1ccc(OC(F)(F)F)cc1
5. O=C(O)CNC(=O)C1=C(O)CCN(C[C@H]2C[C@H](Oc3ccc(Cl)cc3)C2)C1=O

29
55
95
69
95

Give me inhibition at 1 µM for each of these compounds, listed below.
1. O=C(O)CNC(=O)C1=C(O)CCN(Cc2ccc3sccc3c2)C1=O
2. O=C(O)CNC(=O)C1=C(O)CC2(CCCCC2)N(Cc2ccc(OCC3CC3)cc2)C1=O

1: 90; 2: 78

Give me inhibition at 1 µM for each of these compounds, listed below.
1. O=C(O)CNC(=O)C1=C(O)C2(CCOCC2)CN(Cc2ccc(-c3ccc(C(F)(F)F)cc3)cc2)C1=O
2. O=C(O)CNC(=O)C1=C(O)C2(CCCCC2)N(Cc2ccc(-c3ccc(Cl)cc3)cc2)C1=O
3. Cc1ccc(COc2ccc(CN3CCC(O)=C(C(=O)NCC(=O)O)C3=O)cc2)cc1
4. Cn1cc(-c2ccc(CN3CCC(O)=C(C(=O)NCC(=O)O)C3=O)cc2)cn1
5. O=C(O)CNC(=O)C1=C(O)CCN(Cc2ccc(OCc3cn4ccsc4n3)cc2)C1=O

1. 84
2. 91
3. 97
4. 80
5. 85

Give me inhibition at 1 µM for each of these compounds, listed below.
1. O=C(O)CNC(=O)C1=C(O)C2CCCCC2N(Cc2ccc(C(F)(F)F)cc2)C1=O (stereo not shown)
2. O=C(O)CNC(=O)C1=C(O)CC2(CCC2)N(Cc2ccc(OC(F)(F)F)cc2)C1=O
3. Cc1ccc(Oc2ccc(CN3CC(C)(C)C(O)=C(C(=O)NCC(=O)O)C3=O)cn2)cc1

1: 65; 2: 81; 3: 92
